molecular target: CB1 (mutant) (Homo sapiens); assay: R-SAT functional receptor assay, CB1 (mutant, truncated after amino acid 417); format: cell-based; details: Appendix A; R-SAT CB1; receptor form not stated; relative to SR141716 (100%); read-out: % Inhibition
Sequence (P21554 1-417, change not shown): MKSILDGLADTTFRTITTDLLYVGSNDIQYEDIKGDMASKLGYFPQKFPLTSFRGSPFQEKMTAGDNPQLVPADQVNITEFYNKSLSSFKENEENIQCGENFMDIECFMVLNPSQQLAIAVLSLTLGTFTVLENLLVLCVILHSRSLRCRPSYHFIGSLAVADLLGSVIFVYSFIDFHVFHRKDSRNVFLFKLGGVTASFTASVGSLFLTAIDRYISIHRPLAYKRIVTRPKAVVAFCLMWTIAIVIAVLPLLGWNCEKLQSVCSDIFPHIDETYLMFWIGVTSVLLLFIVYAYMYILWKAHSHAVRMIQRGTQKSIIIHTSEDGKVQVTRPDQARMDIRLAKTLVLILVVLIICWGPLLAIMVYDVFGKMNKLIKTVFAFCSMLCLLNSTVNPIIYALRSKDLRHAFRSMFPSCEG
Answer each item with its documented Emax.
Numbers only, in %.

Recorded Emax, per entry:
| molecule | Emax [%] |
| --- | --- |
| CCCC1=Nc2cc(C(=O)NCCCN3CCN(c4ccc(OC)cc4)CC3)ccc2Sc2ccccc21 | 79 |
| O=C(NCCc1cccnc1)c1ccc2c(c1)N=C(c1ccc(F)cc1)c1ccccc1S2 [drawing 1033] | 119 |
| CCCCNC(=O)c1ccc2c(c1)N=C(c1ccc(Cl)cn1)c1ccccc1S2 [drawing 813] | 106 |
| CCCCN(CCCNC(=O)c1ccc2c(c1)N=C(CCC)c1ccccc1S2)Cc1ccccc1 | 99 |
| CCOCCNC(=O)c1ccc2c(c1)N=C(c1ccc(Br)cc1)c1ccccc1S2 [drawing 1143] | 85 |
| CONC(=O)c1ccc2c(c1)N=C(c1ccc(Cl)cc1Cl)c1ccccc1S2 | -27 |
| CCCC1=Nc2cc(C(=O)NCCCN3CCN(c4ccccc4F)CC3)ccc2Sc2ccccc21 | 120 |
| O=C(NCc1ccccc1)c1ccc2c(c1)N=C(N1CCCCC1)c1ccccc1S2 [drawing 681] | 110 |

## Input Provide measured Emax value, entry: CCCC1=Nc2cc(C(=O)NCCCOC(C)C)ccc2Sc2ccccc21
## Output 117

====

Answer each item with its documented IC50.
biological target: CB1 (mutant) (Homo sapiens); test: R-SAT functional receptor assay, CB1 (mutant, truncated after amino acid 417); type: cell-based; conditions: Appendix A; R-SAT CB1; receptor form (mutant or wild-type) not stated; read-out: pIC50 (converted)
Answers are plain numbers, in µM.

Recorded IC50, per entry:
| compound | IC50 / µM |
| --- | --- |
| O=C(NN1CCOCC1)c1ccc2c(c1)N=C(C1CCCCC1)c1ccccc1S2 | 0.0631 |
| O=C(NCCc1ccncc1)c1ccc2c(c1)N=C(c1ccc(F)cc1)c1ccccc1S2 [drawing 1031] | 0.0251 |
| COc1ccc(C2=Nc3cc(C(=O)NC(C)C)ccc3Sc3ccccc32)cc1 [drawing 780] | 0.1 |
| CCCCNC(=O)c1cc2c(cc1O)Sc1ccccc1C(c1ccc(Cl)cc1)=N2 [drawing 552] | 0.0501 |
| O=C(NCc1ccccn1)c1ccc2c(c1)N=C(c1cccc(Br)c1)c1ccccc1S2 [drawing 891] | 0.0158 |

Hi! Can you tell me IC50 for each of these compounds?
1. CCCNC(=O)c1ccc2c(c1)N=C(c1ccc(Cl)cc1)c1ccccc1S2 [drawing 969]
2. O=C(NCCC(F)(F)F)c1ccc2c(c1)N=C(c1cccc(F)c1)c1ccccc1S2 [drawing 625]

## Output
[0.02, 0.00501]

====

biological target: CB1 (mutant) (Homo sapiens); experiment: R-SAT functional receptor assay, CB1 (mutant, truncated after amino acid 417); format: cell-based; details: Appendix A; R-SAT CB1; receptor form not stated; relative to SR141716 (100%); read-out: % Inhibition
Answer each item with its documented Emax.
Write the numeric value and append its unit.

Hi! Can you tell me Emax for each of these compounds?
1. CCOC(=O)c1ccc(C2=Nc3cc(C(=O)NCc4ccncc4)ccc3Sc3ccccc32)cc1
2. COc1ccccc1C1=Nc2cc(C(=O)NCC(C)C)ccc2Sc2ccccc21

## Output
1: 69%; 2: 91%

Hi! Can you tell me Emax for each of these compounds?
1. O=C(NCCc1ccccn1)c1ccc2c(c1)N=C(c1ccc(Cl)cc1F)c1ccccc1S2 [drawing 562]
2. CCCCNC(=O)c1cc2c(cc1C)Sc1ccccc1C(c1ccc(Cl)cc1)=N2 [drawing 630]
3. Cc1cccnc1C1=Nc2cc(C(=O)NC3CCCCC3)ccc2Sc2ccccc21
4. CC(C)NC(=O)c1ccc2c(c1)N=C(c1ccccn1)c1ccccc1S2
5. CCCC1=Nc2cc(C(=O)NCCc3ccc(OC)cc3OC)ccc2Sc2ccccc21 [drawing 570]

## Output
96%
94%
61%
60%
101%

Hi! Can you tell me Emax for each of these compounds?
1. N#Cc1ccc(C2=Nc3cc(C(=O)NNCc4ccccc4)ccc3Sc3ccccc32)cc1 [drawing 1174]
2. Cc1ccsc1C1=Nc2cc(C(=O)NCCC(F)(F)F)ccc2Sc2ccccc21 [drawing 1047]
3. CCCCNC(=O)c1ccc2c(c1)N=C(N1CCCCC1)c1ccccc1S2 [drawing 683]
4. O=C(NCCC(F)(F)F)c1ccc2c(c1)N=C(c1ccc(Cl)cc1)c1ccccc1S2 [drawing 705]
5. O=C(NCc1ccccc1Br)c1ccc2c(c1)N=C(C1CCCCC1)c1ccccc1S2 [drawing 548]
6. CC(CNC(=O)c1ccc2c(c1)N=C(c1ccccc1F)c1ccccc1S2)c1ccccc1 (stereo not drawn) [drawing 909]
7. CCCC1=Nc2cc(C(=O)NCCCN(C)C3CCCCC3)ccc2Sc2ccccc21

## Output
1: 58%; 2: 101%; 3: 99%; 4: 91%; 5: 85%; 6: 110%; 7: 120%
